# credit: patent US20200405852A1

Record form. Attribute: pKd. Fill in for each entry.
- System tested: T1, activated human complement C1s (human, UniProt P09871 16-688)
- T1 construct: also called aC1s; active C1s
- T1 sequence: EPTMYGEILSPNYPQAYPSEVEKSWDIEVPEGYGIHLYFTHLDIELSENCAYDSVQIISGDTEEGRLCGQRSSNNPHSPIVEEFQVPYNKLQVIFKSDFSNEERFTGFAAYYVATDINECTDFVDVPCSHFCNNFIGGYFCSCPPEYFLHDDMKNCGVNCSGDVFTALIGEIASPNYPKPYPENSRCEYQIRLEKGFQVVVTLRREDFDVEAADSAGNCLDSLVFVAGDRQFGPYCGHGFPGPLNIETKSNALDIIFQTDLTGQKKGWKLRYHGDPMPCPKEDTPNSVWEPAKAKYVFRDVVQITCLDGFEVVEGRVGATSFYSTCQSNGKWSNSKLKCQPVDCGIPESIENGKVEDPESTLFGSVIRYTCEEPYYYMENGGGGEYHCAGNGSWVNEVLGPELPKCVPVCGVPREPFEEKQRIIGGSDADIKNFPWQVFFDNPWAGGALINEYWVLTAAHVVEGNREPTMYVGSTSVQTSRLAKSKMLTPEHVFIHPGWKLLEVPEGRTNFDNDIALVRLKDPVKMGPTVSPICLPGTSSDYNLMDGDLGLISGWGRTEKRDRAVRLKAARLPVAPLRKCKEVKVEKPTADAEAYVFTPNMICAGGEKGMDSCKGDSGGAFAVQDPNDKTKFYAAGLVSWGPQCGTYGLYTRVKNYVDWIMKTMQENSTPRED
- Protocol notes: kinetic characterization of binding to active human C1s; instrument not stated
A value of pKd is the negative decimal logarithm of a concentration given in moles per litre.

Supply reported pKd belonging to this binder: humanized TNT005 variant VH variant 1+Vk variant 5 (antibody, V domains shown, also called VH variant 1 + VL variant 5) VH: EVQLVQSGAELKKPGASVKLSCTASGFNIKDDYIHWVKQAPGQGLEWIGRIDPADGHTKYAPKFQVKATITADTSTNTAYLQLSSLTSEDTAVYYCARYGYGREVFDYWGQGTTVTVSS VL: DIVLTQSPDSLAVSLGERATISCKASQSVDYDGDSYMNWYQQKPGQPPKLLIYDASNLESGIPARFSGSGSGTDFTLTISSLEPEDFAVYYCQQSNEDPWTFGGGTKVEIK
9.66

Supply reported pKd belonging to this binder: humanized TNT005 variant VH variant 3+Vk variant 2 (antibody, V domains shown, also called VH variant 3 + VL variant 2) VH: QVQLVQSGAEVKKPGASVKLSCTASGFNIKDDYIHWVKQAPGQGLEWIGRIDPADGHTKYAPKFQVKVTITADTSTSTAYLELSSLRSEDTAVYYCARYGYGREVFDYWGQGTTVTVSS VL: DIVLTQSPDSLAVSLGERATISCKASQSVDYDGDSYMNWYQQKPGQPPKILIYDASNLESGIPARFSGSGSGTDFTLTISSLEPEDFAIYYCQQSNEDPWTFGGGTKVEIK
9.23

Supply reported pKd belonging to this binder: humanized TNT005 variant VH variant 2+Vk variant 1 (antibody, V domains shown, also called VH variant 2 + VL variant 1) VH: EVQLVQSGAEVKKPGASVKLSCTASGFNIKDDYIHWVKQAPGQGLEWIGRIDPADGHTKYAPKFQVKATITADTSTNTAYLELSSLRSEDTAVYYCARYGYGREVFDYWGQGTTVTVSS VL: DIVLTQSPDSLAVSLGERATISCKASQSVDYDGDSYMNWYQQKTGQPPKILIYDASNLESGIPARFSGSGSGTDFTLTISSLEEEDFAIYYCQQSNEDPWTFGGGTKVEIK
9.60
